FYI, the data here is from the Deep4Chem optical property database.

Assay: solvent given as SMILES
Settings: in CS(C)=O
Label Met when emission maximum is at or above 500 nm; otherwise label Not met.

These solved cases illustrate the format of a correct answer.
molecule | qualitative-label
CC(C)[Si]1(C(C)C)c2cc(C#N)ccc2-c2ccc(N(C)C)cc21 | Not met
COc1ccc(/C=C/C=C/C=C/c2ccc([N+](=O)[O-])cc2)cc1 | Met
c1ccc(-c2oc(-c3ccccc3)c3ccccc23)cc1 | Not met

Check this molecule for emission maximum at or above 500 nm: COc1ccc(/C=C/c2ccc(-c3nnc(-c4ccc(-c5cc6ccccc6s5)cc4)o3)cc2)cc1
Not met

Check this molecule for emission maximum at or above 500 nm: C[N+]1=C(/C=C/C=C2/N(CCC[N+](C)(C)C)c3ccc(S(=O)(=O)[O-])cc3C2(C)C)C(C)(C)c2ccccc21
Met

Check this molecule for emission maximum at or above 500 nm: CN(C)c1ccc(/C=C/c2nc(/C=C/c3ccc(N(c4ccccc4)c4ccccc4)cc3)cc(/C=C/c3ccc(N(c4ccccc4)c4ccccc4)cc3)n2)cc1
Met

Check this molecule for emission maximum at or above 500 nm: Fc1ccccc1-c1nc2sc3ccccc3c2s1
Not met

Check this molecule for emission maximum at or above 500 nm: CN(C)c1ccc2nc(/C=C/c3cc4c5c(c3)CCCN5CCC4)c(=O)oc2c1
Met

Check this molecule for emission maximum at or above 500 nm: c1ccc(-n2c(-c3cccc4ccccc34)nc3c4cccc5ccc6cccc(c6c54)c32)cc1
Not met

Check this molecule for emission maximum at or above 500 nm: O=C1CCCC2=C1C(c1ccccc1)c1c(c3ccccc3oc1=O)N2 (centres undefined)
Not met

Check this molecule for emission maximum at or above 500 nm: CN(C)c1ccc2nc(-c3ccc(C(=O)Nc4ccccc4)cc3)sc2c1
Met

Check this molecule for emission maximum at or above 500 nm: c1ccc2sc(-c3ccc(-c4nnc(-c5ccc(-c6nnc(-c7ccc(-c8cc9ccccc9s8)s7)o6)cc5)o4)s3)cc2c1
Not met

Check this molecule for emission maximum at or above 500 nm: CC1(C)C(/C=C/C=C/c2cc3ccc(O)cc3oc2=O)=[N+](CCCS(=O)(=O)[O-])c2ccc(S(=O)(=O)O)cc21
Met

Check this molecule for emission maximum at or above 500 nm: Nc1ccc(-c2ccc(N)cc2)cc1
Not met

Check this molecule for emission maximum at or above 500 nm: CC(=O)c1ccc2ccc3c(NCCC(=O)NCCCCCCc4nc5c(=O)[nH]c(N)nc5n4[C@H]4C[C@H](O)[C@@H](CO)O4)ccc4ccc1c2c43
Met
